Value source: patent US20190010203A1

Reported Max Activity % of positive control, CLR/RAMP1 cAMP assay values are given for each entry in this list.
molecular target: CLR/RAMP1 receptor (UniProt Q16602 23-461; O60894 27-148, limits assumed); assay: cell-based or functional assay
Sequence (Q16602 23-461 limits assumed, chain 1 of 2): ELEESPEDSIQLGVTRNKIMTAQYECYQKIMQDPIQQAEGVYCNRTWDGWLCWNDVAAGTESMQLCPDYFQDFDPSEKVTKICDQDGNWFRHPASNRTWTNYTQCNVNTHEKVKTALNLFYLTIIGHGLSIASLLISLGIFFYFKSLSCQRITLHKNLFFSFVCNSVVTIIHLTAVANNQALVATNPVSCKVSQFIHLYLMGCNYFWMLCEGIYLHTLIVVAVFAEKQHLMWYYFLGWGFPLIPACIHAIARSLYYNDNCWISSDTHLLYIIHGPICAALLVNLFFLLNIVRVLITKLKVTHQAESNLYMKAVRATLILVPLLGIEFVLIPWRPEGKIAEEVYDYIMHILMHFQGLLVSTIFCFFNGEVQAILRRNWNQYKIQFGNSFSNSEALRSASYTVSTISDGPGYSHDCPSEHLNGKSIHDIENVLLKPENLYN
Sequence (O60894 27-148 limits assumed, chain 2 of 2): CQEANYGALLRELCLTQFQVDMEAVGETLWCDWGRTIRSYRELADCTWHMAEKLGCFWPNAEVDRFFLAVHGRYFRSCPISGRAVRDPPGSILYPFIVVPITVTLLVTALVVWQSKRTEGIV
*: point of attachment. Palmitoyl = CCCCCCCCCCCCCCCC(=O)*

Some binders with recorded Max Activity % of positive control, CLR/RAMP1 cAMP assay:
{"columns": ["Binder", "Result"],
 "data": [
  ["miniPEG-K(Palmitoyl)GCRFGTCTVQKLAHQIYQFTDKDKDNVDPSSPHSY-NH2 (cysteine pairing not given here) [SEQ ID NO: 94]", "67 % of positive control"],
  ["miniPEG-K(Palmitoyl)GCRFGTCTVQKLAHQIYQFTDKDKSAPVDPSSPHSY-NH2 (ends and bridges not checked) [SEQ ID NO: 47]", "85 % of positive control"]
]}

Looking for the measured Max Activity % of positive control, CLR/RAMP1 cAMP assay of Ac-FGCRFGTCTVQKLAHQIYQFTDKDKDNVAPRSKISPQGY-NH2 (cysteine pairing not given here) [human ADM, SEQ ID NO: 53] , can you help?
69 % of positive control
